# Test system: HEK-293T
# Assay name: Multiplex assay against HEK293T
# Assay type: toxicity, cell-based
# Reported conditions: human, 24 h, 1 µM, compound concentration 1 uM, replicate 2
Quantity: Population Mitochondria Different-Phenotype (%)
Number in %, nothing else.

1. CCc1cc2c(cc1CC)CC(NC[C@H](O)c1ccc(O)c3[nH]c(=O)ccc13)C2	42
2. CCn1c(-c2nonc2N)nc2cnc(Oc3cccc(NC(=O)c4ccc(OCCN5CCOCC5)cc4)c3)cc21 [GSK-269962A]	17
3. Cl.Cl.Nc1ncnc2c1c(-c1cccc(OCc3ccccc3)c1)cn2[C@H]1C[C@@H](CN2CCC2)C1	93
4. CNc1oc(-c2cccc3ccccc23)nc1C#N	8

Identify measured Population Mitochondria Different-Phenotype (%) associated with Cc1cn(-c2cc(NC(=O)c3ccc4c(c3)CN(c3cncnc3)C[C@@H]4C)cc(C(F)(F)F)c2)cn1
2

The measurements presented in this section are drawn from ChEMBL document CHEMBL4689842.
